Assay type: physicochemical
Details: temperature in which 50 mg of substance is dissolved in 1 ml of a 1:4 benzyl benzoate/castor oil mixture; lower temperature = better solubility
endpoint: Solubility (°C)

INSERT INTO measurements (compound, measured_number) VALUES
  ('CC(C)C(=O)OC/C=C\[C@]1(O)CC[C@H]2[C@@H]3CCC4=CC(=O)CC[C@@]45Cc4cc(-c6ccc(C#N)cc6)ccc4[C@@H](C[C@@]21C)[C@@H]35', 100),
  ('CC(C)[C@H](NC(=O)OC(C)(C)C)C(=O)OCCC[C@@]1(O)CC[C@H]2[C@@H]3CCC4=CC(=O)CCC4=C3[C@@H](c3ccc(N(C)C)cc3)C[C@]21C', 23),
  ('CN(C)c1ccc(C2CC3(C)C(CCC3(O)C=CCOC(=O)CNC(=O)OC(C)(C)C)C3CCC4=CC(=O)CCC4C23)cc1 (stereo not drawn)', 23),
  ('CCCCCCC(=O)OCC=CC1(O)CCC2C3CCC4=CC(=O)CCC45Cc4cc(-c6cccnc6)ccc4C(CC21C)C35 (stereo not drawn)', 50);

* * *

Assay type: physicochemical
Conditions: temperature in which 50 mg of substance is dissolved in 1 ml of a 1:4 benzyl benzoate/castor oil mixture; lower temperature = better solubility
endpoint: Solubility (°C)

INSERT INTO results (compound, endpoint, value_unit, measured_number) VALUES
  ('CC12CC3c4ccc(-c5ccc(C#N)cc5)cc4CC45CCC(=O)C=C4CCC(C35)C1CCC2(O)C=CCOC(=O)CN (centres unmarked)', 'Solubility', '°C', 100),
  ('CC(NC(=O)OC(C)(C)C)C(=O)OCC=CC1(O)CCC2C3CCC4=CC(=O)CCC4C3C(c3ccc(N(C)C)cc3)CC21C (centres unmarked)', 'Solubility', '°C', 23),
  ('CC(C)(C)OC(=O)NCC(=O)OCC=CC1(O)CCC2C3CCC4=CC(=O)CCC4C3C(c3ccc(-c4ccc(C#N)cc4)cc3)CC21C (centres unmarked)', 'Solubility', '°C', 23),
  ('CN(C)c1ccc(C2CC3(C)C(CCC3(O)CCCOC(=O)CNC(=O)OC(C)(C)C)C3CCC4=CC(=O)CCC4=C23)cc1 (centres unmarked)', 'Solubility', '°C', 23),
  ('COC(=O)CCC(=O)OCC=CC1(O)CCC2C3CCC4=CC(=O)CCC45Cc4cc(-c6ccc(C#N)cc6)ccc4C(CC21C)C35 (centres unmarked)', 'Solubility', '°C', 50),
  ('CC(C)C(N)C(=O)OCC=CC1(O)CCC2C3CCC4=CC(=O)CCC4C3C(c3ccc(-c4ccc(C#N)cc4)cc3)CC21C (centres unmarked)', 'Solubility', '°C', 50),
  ('CCOCCC(=O)OCC=CC1(O)CCC2C3CCC4=CC(=O)CCC45Cc4cc(-c6ccc(C#N)cc6)ccc4C(CC21C)C35 (centres unmarked)', 'Solubility', '°C', 100),
  ('CC(NC(=O)OC(C)(C)C)C(=O)OCCCC1(O)CCC2C3CCC4=CC(=O)CCC4=C3C(c3ccc(N(C)C)cc3)CC21C (centres unmarked)', 'Solubility', '°C', 23),
  ('CC(C)C(NC(=O)OC(C)(C)C)C(=O)OCC=CC1(O)CCC2C3CCC4=CC(=O)CCC4C3C(c3ccc(N(C)C)cc3)CC21C (centres unmarked)', 'Solubility', '°C', 23),
  ('CC(C)C(NC(=O)OC(C)(C)C)C(=O)OCC=CC1(O)CCC2C3CCC4=CC(=O)CCC4C3C(c3ccc(-c4ccc(C#N)cc4)cc3)CC21C (centres unmarked)', 'Solubility', '°C', 50),
  ('CC(NC(=O)OC(C)(C)C)C(=O)OCC=CC1(O)CCC2C3CCC4=CC(=O)CCC4C3C(c3ccc(-c4ccc(C#N)cc4)cc3)CC21C (centres unmarked)', 'Solubility', '°C', 50),
  ('CC(N)C(=O)OCC=CC1(O)CCC2C3CCC4=CC(=O)CCC45Cc4cc(-c6ccc(C#N)cc6)ccc4C(CC21C)C35 (centres unmarked)', 'Solubility', '°C', 23),
  ('C[C@H](N)C(=O)OC/C=C\[C@]1(O)CC[C@H]2[C@@H]3CCC4=CC(=O)CC[C@@H]4[C@H]3[C@@H](c3ccc(N(C)C)cc3)C[C@@]21C', 'Solubility', '°C', 50),
  ('CC(C)(C)CC(=O)OC/C=C\[C@]1(O)CC[C@H]2[C@@H]3CCC4=CC(=O)CC[C@@]45Cc4cc(-c6ccc(C#N)cc6)ccc4[C@@H](C[C@@]21C)[C@@H]35', 'Solubility', '°C', 23);
